Biological target: Q9Y3R0
Experiment: holdup assay
Design: key: below the threshold = too weak to quantify, mostly under pKd 3.1 to 4
Settings: plain residues with an end cap or a label only (N-terminal biotin on a linker: ttds)
reported property: pKd

For orientation, consider the following solved cases.
| binder | observed measurement |
| --- | --- |
| KLVIKTETTV [RASSF6, Q6ZTQ3] | below the threshold |
| SHSSKGETAV [FZD7, O75084] | below the threshold |
| PSRDRKETSI [RALBP1, Q15311] | below the threshold |
| SSIDLWETAL [SLC15A5, A6NIM6] | below the threshold |

Continue with the binder presented below.
// field: pKd; key: PPRQRSETQV [HPV82-E6, Q9IR59] ; value = below the threshold

Reference source for all entries: paper PMC9482650
